Values from the supplement of paper PMC6555819

PBM binding z-score reference
system: PPARg:RXRa DBDmut IVT, anti-RXR (DBD mutation: RXRa K156A/R161A, NR concentration 270 nM, RXRa partner concentration 90 nM); assay: PBM binding z-score (relative to random genomic background probes); higher = stronger binding; sequences stand for … in GC…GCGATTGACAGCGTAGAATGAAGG
A bare number is all that is needed in reply.

Take a look at these entries with their results.
{"Monomer sequence": "TAGACAGGGTCAAAGGCCAGAGTACGAATGTCGA", "Metric": "PBM binding z-score", "Measured value": 0.674}
{"Monomer sequence": "CCGACTGGGGCACGGTTACCATAACGCACAGCCA", "Metric": "PBM binding z-score", "Measured value": 3.83}
{"Monomer sequence": "TAGCCTAGGTGATGCGGGCCAGTATAGTGTCGGC", "Metric": "PBM binding z-score", "Measured value": -0.174}

Which measured PBM binding z-score value corresponds to "CAAACTAGGTCAAAGGTCAAATTCGAGCCAACCA" ? 8.73

Which measured PBM binding z-score value corresponds to "GCTAGCAGGCCATTTGGGGCACTCAATGACGGGC" ? 1.12

Which measured PBM binding z-score value corresponds to "TGAATGAGGTAATAAGATCAGGGAACGTTGCAAA" ? 0.356

Which measured PBM binding z-score value corresponds to "CCTAATTGGTCAAGGTCACACACGCTATAGGTAC" ? 2.69

Which measured PBM binding z-score value corresponds to "AGAATTAGGTTAAGATCAGGGAAACAGAATACAT" ? 6.07

Which measured PBM binding z-score value corresponds to "TCTAGTTGGTCTCGGAGGTCACACACGACGGGTA" ? 1.7

Which measured PBM binding z-score value corresponds to "ACTAGCAGGCCAAGGGTCACTCATGATTAGTCCG" ? 1.25

Which measured PBM binding z-score value corresponds to "TCATATAGGTAATACAGGTGAAAGTCGGCATCTA" ? 4.2

Which measured PBM binding z-score value corresponds to "TCTATTGGTTGATTAGGGCAACCGAAACAGCGGA" ? 1.96

---

test system: LXRb:RXRa (NR concentration 270 nM, RXRa partner concentration 90 nM); test: PBM binding z-score (relative to random genomic background probes); higher = stronger binding; sequences stand for … in GC…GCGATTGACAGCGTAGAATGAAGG
Values of PBM binding z-score greater than or equal to 2 map to fulfilled; values below map to not fulfilled.

Worked examples follow.
{"Monomer sequence": "GCTAGCAGGCCATTTGGGTCACACAATGACGGGC", "Assayed system": "LXRb:RXRa (NR concentration 270 nM, RXRa partner concentration 90 nM)", "Class label": "not fulfilled"}
{"Monomer sequence": "CCTGCTAGGTCATGGTCACCTAATCTACAGTATG", "Assayed system": "LXRb:RXRa (NR concentration 270 nM, RXRa partner concentration 90 nM)", "Class label": "fulfilled"}
{"Monomer sequence": "ATCTCTAGGTAAAACTTCAGTGAATCCCGAGGAT", "Assayed system": "LXRb:RXRa (NR concentration 270 nM, RXRa partner concentration 90 nM)", "Class label": "not fulfilled"}
{"Monomer sequence": "CGTCCAAGGTCAAAGCTCAGTGAAGAGATGACGG", "Assayed system": "LXRb:RXRa (NR concentration 270 nM, RXRa partner concentration 90 nM)", "Class label": "fulfilled"}
{"Monomer sequence": "TCATATAGGTAAAAGGTGAAACTCGGTGTGGTAA", "Assayed system": "LXRb:RXRa (NR concentration 270 nM, RXRa partner concentration 90 nM)", "Class label": "fulfilled"}
{"Monomer sequence": "TGAATGAGGTTAAAGATCAGGCAACGTGGCGTCG", "Assayed system": "LXRb:RXRa (NR concentration 270 nM, RXRa partner concentration 90 nM)", "Class label": "not fulfilled"}

Could you tell me if the measured PBM binding z-score of "TCTTGTAGATCAACAGGAGTTTAAGAAAGATCGA" reaches 2 or more? not fulfilled

Could you tell me if the measured PBM binding z-score of "ACAGACAGGTGATGAAGGTAACACAGGCTATCAT" reaches 2 or more? not fulfilled

Could you tell me if the measured PBM binding z-score of "GCATATAGGTAATACAAGGTGAAAGACCGATTGT" reaches 2 or more? not fulfilled

---

tested on: LXRa homodimer (NR concentration 270 nM); test: PBM binding z-score (relative to random genomic background probes); higher = stronger binding; sequences stand for … in GC…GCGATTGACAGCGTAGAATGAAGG
Values of PBM binding z-score greater than or equal to -0.2 map to 1 (yes); values below map to 0 (no).

Worked examples follow.
{"Monomer sequence": "ATATGTATGTTAGCTGGGGTCATTCAGACTAGGC", "Assayed system": "LXRa homodimer (NR concentration 270 nM)", "Class label": "1 (yes)"}
{"Monomer sequence": "TAGCCTAGGTCATTGGGCCAGTGTAGTACGCATC", "Assayed system": "LXRa homodimer (NR concentration 270 nM)", "Class label": "1 (yes)"}
{"Monomer sequence": "CAAACTAGGTCACAGAGGTAAAAGTCCGTGCGTA", "Assayed system": "LXRa homodimer (NR concentration 270 nM)", "Class label": "1 (yes)"}

Could you tell me if the measured PBM binding z-score of "AGAATGAGGTTAGTAAGATCAGGGAATTGCGGTC" reaches -0.2 or more? 0 (no)

Could you tell me if the measured PBM binding z-score of "ATATGTAGGTTATCGGGTCATTCAGTTTGCGCAT" reaches -0.2 or more? 1 (yes)

Could you tell me if the measured PBM binding z-score of "CCAGACAGATGAAAGGTAACTCAGTCTGGTACGC" reaches -0.2 or more? 0 (no)

Could you tell me if the measured PBM binding z-score of "CGTCCAAGGTCAGTGCTAGGTCAGTGAAAGCATT" reaches -0.2 or more? 1 (yes)

Could you tell me if the measured PBM binding z-score of "CCTGCTAAGTCATGGTCAGCTAATCTACAGTATG" reaches -0.2 or more? 1 (yes)

Could you tell me if the measured PBM binding z-score of "ATATGTAGGTTATCGGGTGATTCAGTTTGCGCAT" reaches -0.2 or more? 1 (yes)

Could you tell me if the measured PBM binding z-score of "ACTAGCAGCCCAAGTTTGGGTCACTCAAACAAAG" reaches -0.2 or more? 0 (no)

Could you tell me if the measured PBM binding z-score of "CAGCCTAGGTCAGGGCCAGGATAGGAGGAACGTT" reaches -0.2 or more? 0 (no)

Could you tell me if the measured PBM binding z-score of "ATACCAAGGTGATCGTGCGGTCGTTGATACTAAC" reaches -0.2 or more? 1 (yes)

Could you tell me if the measured PBM binding z-score of "AGTCAAAGTTCAGGATGAGGTAACGTAAAGCACG" reaches -0.2 or more? 1 (yes)

Could you tell me if the measured PBM binding z-score of "GCAGACAGGTGGAACGCAGGTAACTCAGGGTGGC" reaches -0.2 or more? 0 (no)

Could you tell me if the measured PBM binding z-score of "ATCGAAAGGTCGAGGTGACTATAGAGAAAGGGAA" reaches -0.2 or more? 1 (yes)

Could you tell me if the measured PBM binding z-score of "ACTGTTAGTTGAGACGAGGGCAACCGATAGGTTG" reaches -0.2 or more? 1 (yes)

Could you tell me if the measured PBM binding z-score of "CGAACTAGGTCAGAACAGGATAGTGAAGGATGAT" reaches -0.2 or more? 0 (no)

Could you tell me if the measured PBM binding z-score of "GTACCAAGGTGAATAGGTCGTAGATGAGTAGGCG" reaches -0.2 or more? 0 (no)

Could you tell me if the measured PBM binding z-score of "CAAACTATGTCAAAGGTCAAAGTCGAGCCAACCA" reaches -0.2 or more? 1 (yes)

Could you tell me if the measured PBM binding z-score of "CGAACGAGGGCATGAGTTCATAGCAAATGCCGAT" reaches -0.2 or more? 1 (yes)

Could you tell me if the measured PBM binding z-score of "CCTTACGGGTCACGATGTTATAGCACGACGAGCG" reaches -0.2 or more? 1 (yes)

Could you tell me if the measured PBM binding z-score of "CGATCTAGGTCATCCAGGACAGTGAATACATTGA" reaches -0.2 or more? 1 (yes)

Could you tell me if the measured PBM binding z-score of "TCTAGTTGGTCACTGAGGTCACACACGACGGGTA" reaches -0.2 or more? 1 (yes)

---

PBM binding z-score reference
tested on: PPARa:RXRa (NR concentration 270 nM, RXRa partner concentration 90 nM); assay: PBM binding z-score (relative to random genomic background probes); higher = stronger binding; sequences stand for … in GC…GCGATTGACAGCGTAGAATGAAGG

Take a look at these entries with their results.
{"Monomer sequence": "CGTCCAAGGTCAGCAGGTCAGTTAAAGCGACGTG", "Measured value": 4.97}
{"Monomer sequence": "GATACAGGGTCAAGGCCAAAGTACGCGTATTGAT", "Measured value": 5.6}
{"Monomer sequence": "CCTAGCAGGCCAATCTGGGTCACTCACGGCTTGA", "Measured value": 2.81}
{"Monomer sequence": "CCTACTGGACCACGAAAGGTCATTGATTCAGTGA", "Measured value": 4.5}

Which measured PBM binding z-score value corresponds to "CGTCCAAGGTCAGCAGTTCAGTGAAAGCGACGTG" ? 4.42

Which measured PBM binding z-score value corresponds to "TCTTATAGGTAAATGCTAGGTGAAAGTCCGATCT" ? 1.27
